- protocol details: Plasma and CSF pharmacokinetics, 6-week Phase IIa study (Example 2)
- Assay type: in vivo, human
- condition label: human, oral; 6-week study plasma PK; read-out: terminal half-life (converted)
measurement kind: half-life (h)
Kindly answer with a numeric value in h, unit omitted.

Input: Entry O=c1ncn2nc(Sc3ccc(F)cc3F)ccc2c1-c1c(Cl)cccc1Cl has what half-life?
Output: 10

---

- protocol details: Brain versus blood exposure in animals (preclinical PK)
- Type: in vivo
- condition label: brain relative to peripheral blood, read-out: exposure in the brains of animals relative to peripheral blood
measurement kind: Kp

Input: Entry O=c1ncn2nc(Sc3ccc(F)cc3F)ccc2c1-c1c(Cl)cccc1Cl has what Kp?
Output: ~1.7

---

- protocol details: Population pharmacokinetic analyses (Example 1 and Example 2 combined)
- Type: in vivo, human
- condition label: human, plasma, oral; population PK, Examples 1 and 2 combined; read-out: terminal half-life (converted)
measurement kind: half-life

Input: Entry O=c1ncn2nc(Sc3ccc(F)cc3F)ccc2c1-c1c(Cl)cccc1Cl has what half-life?
Output: ~16 h

---

- protocol details: Plasma and CSF pharmacokinetics, 6-week Phase IIa study (Example 2)
- Type: in vivo, human
- condition label: human, plasma, oral; 40 mg twice daily
measurement kind: Cmax (ng/mL)
Kindly answer with a numeric value in ng/mL, unit omitted.

Input: Entry O=c1ncn2nc(Sc3ccc(F)cc3F)ccc2c1-c1c(Cl)cccc1Cl [VX-745] has what Cmax?
Output: 23

Data origin, for the record: patent US10420770B2
